Tested on: HIV-IIIb IN T174I BT
method notes: Antiviral assay in MT4 cells, HIV-IIIb IN T174I BT virus (from viral breakthrough)
Format: cell-based, HIV-1
test parameters: Human immunodeficiency virus 1, IIIB, MT4, 120 h, read-out: T174I BT EC50, MT4 cells, HIV-IIIb IN T174I BT (viral breakthrough), 5 days, CellTiter-Glo
Please map values of EC50 to classes as shown: L (below 100 nM), M (100 nM to below 400 nM), H (400 nM or more)

Please classify: COC(=O)N1CC(N2CCC(c3cnn4ccc(-c5nc6cc(C)c([C@H](OC(C)(C)C)C(=O)O)c(-c7ccc(Cl)cc7)c6s5)nc34)CC2)C1 [Compound 110] M

Please classify: Cc1cc2nc(-c3ccc4c(c3)c(C3CCN([C@H]5CCN(C)C5)CC3)nn4C)sc2c(-c2ccc(Cl)cc2)c1[C@H](OC(C)(C)C)C(=O)O [Compound 163] M

Please classify: Cc1cc2nc(-c3ccc4c(c3)c(C3CCN([C@@H]5CCN(C)C5)CC3)nn4C)sc2c(-c2ccc(Cl)cc2)c1[C@H](OC(C)(C)C)C(=O)O [Compound 164] M

Please classify: COC(=O)N1CC(N2CCC(c3nn(C4CC4)c4ccc(-c5nc6cc(C)c([C@H](OC(C)(C)C)C(=O)O)c(-c7ccc(Cl)cc7)c6s5)nc34)CC2)C1 [Compound 180] L

Please classify: [2H]C([2H])([2H])n1nc(C2CCN(C3COC3)CC2)c2nc(-c3nc4cc(C)c([C@H](OC(C)(C)C)C(=O)O)c(-c5ccc(Cl)cc5)c4s3)ccc21 [Compound 176] L

Please classify: COC(=O)N(C)C1CN(c2nn(C)c3ccc(-c4nc5cc(C)c([C@H](OC(C)(C)C)C(=O)O)c(-c6ccc(Cl)cc6)c5s4)cc23)C1 [Compound 102] H

----------
System: HIV-IIIb (wildtype)
method notes: Antiviral assay in MT4 cells, HIV-IIIb wildtype
Format: cell-based, HIV-1
test parameters: Human immunodeficiency virus 1, IIIB, MT4, 120 h, read-out: WT EC50
Procedure: Antiviral Assay in MT4 Cells […] Assay plates were then maintained in a humidified, 5% CO2 incubator at 37° C. […] Cell lysis was carried out by incubating at room temperature for 10 minutes and then chemiluminescence was read using an Envision plate reader (PerkinElmer). […]
attribute measured: pEC50
Scale note: pEC50 = -log10(concentration in M).

Worked set:
[[record]]
compound = "CCOC(=O)N1CCC(c2nn(C)c3ccc(-c4nc5cc(C)c([C@H](OC(C)(C)C)C(=O)O)c(-c6ccc(Cl)cc6)c5s4)cc23)CC1 [Compound 24]"
recorded_value = 7.80

[[record]]
compound = "Cc1cc2nc(-c3ccc4c(c3)c(C3CN(C)C3)nn4C)sc2c(-c2ccc(Cl)cc2)c1[C@H](OC(C)(C)C)C(=O)O [Compound 57]"
recorded_value = 7.89

[[record]]
compound = "Cc1cc2nc(-c3ccc4c(n3)c(C3CCN(C5CC5)CC3)nn4C)sc2c(-c2ccc(Cl)cc2)c1[C@H](OC(C)(C)C)C(=O)O [Compound 187]"
recorded_value = 8.40

[[record]]
compound = "Cc1cc2nc(-c3ccc4c(c3)c(C3CCN(C(=O)[C@H]5CCCO5)CC3)nn4C)sc2c(-c2ccc(Cl)cc2)c1[C@H](OC(C)(C)C)C(=O)O [Compound 9]"
recorded_value = 8.05

[[record]]
compound = "COC(=O)N1CC[C@H]1CN1CCC(c2nn(C)c3ccc(-c4nc5cc(C)c([C@H](OC(C)(C)C)C(=O)O)c(-c6ccc(Cl)cc6)c5s4)cc23)CC1 [Compound 150]"
recorded_value = 8.40


# query: pEC50 | item Cc1cc2nc(-c3ccc4c(n3)c(C3CCN(C5COC5)CC3)nn4C(F)F)sc2c(-c2ccc(Cl)cc2)c1[C@H](OC(C)(C)C)C(=O)O [Compound 194] | system: HIV-IIIb (wildtype) 8.40

----------
Test system: HIV-IIIb IN T174I DE
method notes: Antiviral assay in MT4 cells, HIV-IIIb IN T174I DE virus (from dose escalation passaging)
Assay type: cell-based, HIV-1
test parameters: Human immunodeficiency virus 1, IIIB, MT4, 120 h, read-out: T174I DE EC50, MT4 cells, HIV-IIIb IN T174I DE (dose escalation), 5 days, CellTiter-Glo
Protocol: Antiviral Assay in MT4 Cells […] Assay plates were then maintained in a humidified, 5% CO2 incubator at 37° C. […] Cell lysis was carried out by incubating at room temperature for 10 minutes and then chemiluminescence was read using an Envision plate reader (PerkinElmer). […]
Reported pEC50 values for the following compounds.
Scale note: pEC50 = -log10(concentration in M).

[[record]]
compound = "Cc1cc2nc(-c3ccc4c(c3)c(N3CCC(C5COC5)CC3)nn4C)sc2c(-c2ccc(Cl)cc2)c1[C@H](OC(C)(C)C)C(=O)O [Compound 146]"
attribute_measured = "pEC50"
recorded_value = 5.65

[[record]]
compound = "COC(=O)N1CC(N2CCC(c3cn(C)c4ncc(-c5nc6cc(C)c([C@H](OC(C)(C)C)C(=O)O)c(-c7ccc(Cl)cc7)c6s5)nc34)CC2)C1 [Compound 199]"
attribute_measured = "pEC50"
recorded_value = 6.11


Okay, next one:
Item COCCN(C)C1CN(c2nn(C)c3ccc(-c4nc5cc(C)c([C@H](OC(C)(C)C)C(=O)O)c(-c6ccc(Cl)cc6)c5s4)cc23)C1 [Compound 145] has what recorded pEC50? 5.66

----------
System: HIV-IIIb IN T174I DE
method notes: Antiviral assay in MT4 cells, HIV-IIIb IN T174I DE virus (from dose escalation passaging)
Assay type: cell-based, HIV-1
test parameters: Human immunodeficiency virus 1, IIIB, MT4, 120 h, read-out: T174I DE EC50, MT4 cells, HIV-IIIb IN T174I DE (dose escalation), 5 days, CellTiter-Glo
pEC50: −log10 of the molar value.
The threshold is inclusive: pEC50 of exactly 6 counts as TRUE; values below receive FALSE.

The examples below pair each entry with its known result.
[[record]]
line_notation = "CC(=O)N1CC(N2CCC(c3cn(C)c4ncc(-c5nc6cc(C)c([C@H](OC(C)(C)C)C(=O)O)c(-c7ccc(Cl)cc7)c6s5)cc34)CC2)C1"
assigned_class = "TRUE"

[[record]]
line_notation = "CC(=O)N1CC(N2CCC(c3nn(C4CC4)c4ccc(-c5nc6cc(C)c([C@H](OC(C)(C)C)C(=O)O)c(-c7ccc(Cl)cc7)c6s5)nc34)CC2)C1"
assigned_class = "TRUE"

[[record]]
line_notation = "Cc1cc2nc(-c3ccc4c(c3)c(N3CC5(COC5)C3)nn4C)sc2c(-c2ccc(Cl)cc2)c1[C@H](OC(C)(C)C)C(=O)O"
assigned_class = "FALSE"

[[record]]
line_notation = "COCCN1CCN(c2nn(C)c3ccc(-c4nc5cc(C)c([C@H](OC(C)(C)C)C(=O)O)c(-c6ccc(Cl)cc6)c5s4)cc23)CC1"
assigned_class = "TRUE"

[[record]]
line_notation = "CC(=O)N1CC[C@@H](N2CCC(c3nn(C)c4ccc(-c5nc6cc(C)c([C@H](OC(C)(C)C)C(=O)O)c(-c7ccc(Cl)cc7)c6s5)cc34)CC2)C1"
assigned_class = "TRUE"


Please indicate if the recorded pEC50 for Cc1cc2nc(-c3ccn4ncc(C5CCN(C6COC6)CC5)c4n3)sc2c(-c2ccc(Cl)cc2)c1[C@H](OC(C)(C)C)C(=O)O meets or exceeds 6. TRUE

Please indicate if the recorded pEC50 for COC(=O)N1CC[C@@H](N2CCC(c3nn(C)c4ccc(-c5nc6cc(C)c([C@H](OC(C)(C)C)C(=O)O)c(-c7ccc(Cl)cc7)c6s5)nc34)CC2)C1 meets or exceeds 6. TRUE

Please indicate if the recorded pEC50 for Cc1cc2nc(-c3ccc4c(n3)c(C3CCN([C@@H]5CCN(C)C5)CC3)nn4C)sc2c(-c2ccc(Cl)cc2)c1[C@H](OC(C)(C)C)C(=O)O meets or exceeds 6. TRUE

----------
Reported pEC50 values for the following compounds.
Test system: HIV-IIIb IN T174I BT
method notes: Antiviral assay in MT4 cells, HIV-IIIb IN T174I BT virus (from viral breakthrough)
Type: cell-based, HIV-1
test parameters: Human immunodeficiency virus 1, IIIB, MT4, 120 h, read-out: T174I BT EC50, MT4 cells, HIV-IIIb IN T174I BT (viral breakthrough), 5 days, CellTiter-Glo
Scale note: pEC50 = -log10(concentration in M).

[[record]]
compound = "COC(=O)N1CC(N2CCC(c3cn(C)c4ncc(-c5nc6cc(C)c([C@H](OC(C)(C)C)C(=O)O)c(-c7ccc(Cl)cc7)c6s5)cc34)CC2)C1 [Compound 203]"
tested_target = "HIV-IIIb IN T174I BT"
recorded_value = 6.67

[[record]]
compound = "COC(=O)N1CC[C@@H]1CN1CCC(c2nn(C)c3ccc(-c4nc5cc(C)c([C@H](OC(C)(C)C)C(=O)O)c(-c6ccc(Cl)cc6)c5s4)cc23)CC1 [Compound 5]"
tested_target = "HIV-IIIb IN T174I BT"
recorded_value = 6.97

[[record]]
compound = "CCN1CC(c2nn(C)c3ccc(-c4nc5cc(C)c([C@H](OC(C)(C)C)C(=O)O)c(-c6ccc(Cl)cc6)c5s4)cc23)C1 [Compound 58]"
tested_target = "HIV-IIIb IN T174I BT"
recorded_value = 5.71

[[record]]
compound = "CCN1CCN(c2nn(C)c3ccc(-c4nc5cc(C)c([C@H](OC(C)(C)C)C(=O)O)c(-c6ccc(Cl)cc6)c5s4)cc23)C(=O)C1 [Compound 86]"
tested_target = "HIV-IIIb IN T174I BT"
recorded_value = 5.63


Item Cc1cc2nc(-c3ccc4c(c3)c(C3CCN(C(=O)C5(C)COC5)CC3)nn4C)sc2c(-c2ccc(Cl)cc2)c1[C@H](OC(C)(C)C)C(=O)O [Compound 160] has what recorded pEC50? 6.43

Item Cc1cc2nc(-c3ccc4c(c3)c(C3CCN(C5CC(O)C5)CC3)nn4C)sc2c(-c2ccc(Cl)cc2)c1[C@H](OC(C)(C)C)C(=O)O (stereo partly drawn) [Compound 156] has what recorded pEC50? 6.90
